log10(EC50) reference
Target: hGIPR (Homo sapiens, UniProt P48546)
Sequence (P48546 22-466): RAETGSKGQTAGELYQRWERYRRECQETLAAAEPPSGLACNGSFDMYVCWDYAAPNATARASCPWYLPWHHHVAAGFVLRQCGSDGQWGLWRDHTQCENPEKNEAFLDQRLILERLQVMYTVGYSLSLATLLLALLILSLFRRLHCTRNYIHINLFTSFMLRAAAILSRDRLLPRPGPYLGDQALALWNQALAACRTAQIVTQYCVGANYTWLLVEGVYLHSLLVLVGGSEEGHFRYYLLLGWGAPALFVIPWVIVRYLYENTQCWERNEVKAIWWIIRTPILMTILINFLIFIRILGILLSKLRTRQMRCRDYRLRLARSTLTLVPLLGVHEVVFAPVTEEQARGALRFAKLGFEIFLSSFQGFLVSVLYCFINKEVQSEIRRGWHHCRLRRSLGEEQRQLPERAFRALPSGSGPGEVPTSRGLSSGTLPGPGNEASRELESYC
Assay: Functional cAMP activity in the presence of 1% HSA
Type: cell-based
Conditions: read-out: cAMP Rel EC50, hGIPR
Starred links: 1 amine or outer side, 2 acyl side, 3 side chain; linkers in the order of their positions; H or OH if unused. Non-standard residues stand in square brackets, D forms with d. Groups on a side chain read outwards from the residue. No end group written: not given here. *: point of attachment. C20 diacid = O=C(O)CCCCCCCCCCCCCCCCCCC(=O)*; C18 diacid = O=C(O)CCCCCCCCCCCCCCCCC(=O)*; αMePhe(2-F) = C[C@](N)(Cc1ccccc1F)C(=O)O; γGlu = O=C(O)[C@H](CCC(=O)[*:2])N[*:1]; NMeY = CN[C@@H](Cc1ccc(O)cc1)C(=O)O; αMe4Pal = C[C@](N)(Cc1ccncc1)C(=O)O; αMeY = C[C@](N)(Cc1ccc(O)cc1)C(=O)O; αMeF = C[C@](N)(Cc1ccccc1)C(=O)O; 4Pal = N[C@@H](Cc1ccncc1)C(=O)O; αMeL = CC(C)C[C@](C)(N)C(=O)O; αMeS = C[C@](N)(CO)C(=O)O; Orn = NCCC[C@H](N)C(=O)O; AEEA = NCCOCCOCC(=O)O; Aib = CC(C)(N)C(=O)O
quantityName: log10(EC50) (log10 of the value in nM)

INSERT INTO assay_data (substance, quantityname, endpointresult) VALUES
  ('H-[NMeY][Aib]QGT[αMeF]TSDYSILLDKIAAK([AEEA-AEEA-γGlu-C20 diacid])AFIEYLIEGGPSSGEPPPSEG-NH2 [Example 299]', 'log10(EC50)', 1.60),
  ('Y[Aib]QGT[αMePhe(2-F)]TSD[4Pal][αMeS]I[αMeL]LD[Orn]K([AEEA-γGlu-C18 diacid])AQ[Aib][Orn]FI[dE]YLIEGGPSSGEPPPSEG-NH2 [Example 463]', 'log10(EC50)', 0.80),
  ('H-Y[Aib]QGT[αMePhe(2-F)]TSDYSKLLDKIAQK([AEEA-γGlu-C20 diacid])[Orn]FIEWLIEGGPSSGEPPPSEG-NH2 [Example 310]', 'log10(EC50)', 1.18),
  ('H-Y[Aib]QGT[αMePhe(2-F)]TSD[4Pal][αMeS]I[αMeL]LD[Orn]K([AEEA-γGlu-C18 diacid])AQ[αMe4Pal]EFI[dE][αMeY]LIEGGPSSGAPPPSGTGE-NH2 [Example 714]', 'log10(EC50)', -0.12),
  ('H-Y[Aib]QGT[αMePhe(2-F)]TSD[4Pal]SILLD[Orn]K([γGlu-γGlu-C18 diacid])AQ[Aib]AFIEYLQEGGPSSGAPPPSGTEE-NH2 [Example 581]', 'log10(EC50)', 0.86),
  ('H-Y[Aib]QGT[αMePhe(2-F)]TSD[4Pal][αMeS]I[αMeL]LD[Orn]K([γGlu-γGlu-C18 diacid])AQ[αMe4Pal]EFI[dE][αMeY]LIEGGPSSGAPPPEGGGE-NH2 [Example 761]', 'log10(EC50)', -0.20),
  ('H-Y[Aib]QGT[αMePhe(2-F)]TSD[4Pal][αMeS]I[αMeL]LD[Orn]K([AEEA-γGlu-C18 diacid])AQ[αMe4Pal]EFI[dE][αMeY]LIEGGPSSGAPPPEGGGEEE-NH2 [Example 1217]', 'log10(EC50)', 0.03),
  ('H-Y[Aib]QGTFTSD[4Pal]S[Orn][αMeL]LDKK([γGlu-AEEA-γGlu-C18 diacid])AQ[αMe4Pal]AFIEYLIE[Aib]GPSSGAPPPSGS-NH2 [Example 868]', 'log10(EC50)', 1.25),
  ('H-Y[Aib]QGTFTSDFS[Orn][αMeL]LDKK([AEEA-γGlu-C18 diacid])AQ[Aib]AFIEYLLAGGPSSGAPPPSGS[AEEA]-NH2 [Example 89]', 'log10(EC50)', 1.29),
  ('H-Y[Aib]QGTFTSD[4Pal]SQ[αMeL]LDKK([AEEA-γGlu-C18 diacid])AQ[αMe4Pal]AFIEYLIE[Aib]GPSSGAPPPSGSGE [Example 889]', 'log10(EC50)', 1.33),
  ('H-Y[Aib]QGTFTSD[4Pal]S[Orn][αMeL]LD[Orn]K([γGlu-γGlu-C18 diacid])AQ[αMe4Pal]EFIE[αMeY]LIEGGPSSGAPPPSGSEE-NH2 [Example 973]', 'log10(EC50)', 1.78);

---

target: hGIPR (Homo sapiens); assay: Functional cAMP activation in the presence of 0.1% casein (no HSA); type: cell-based; details: in the presence of 0.1% casein (no HSA); geometric mean; read-out: Relative cAMP EC50, hGIPR;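 note: intracellular cAMP rise after 30 min at 37 °C read by HTRF against a standard curve, scaled between buffer alone (0%) and top control ligand concentration (100%), four-parameter fit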
Starred links: 1 amine or outer side, 2 acyl side, 3 side chain; linkers in the order of their positions; H or OH if unused. Non-standard residues stand in square brackets, D forms with d. Groups on a side chain read outwards from the residue. No end group written: not given here. *: point of attachment. C20 diacid = O=C(O)CCCCCCCCCCCCCCCCCCC(=O)*; C18 diacid = O=C(O)CCCCCCCCCCCCCCCCC(=O)*; αMePhe(2-F) = C[C@](N)(Cc1ccccc1F)C(=O)O; γGlu = O=C(O)[C@H](CCC(=O)[*:2])N[*:1]; αMe4Pal = C[C@](N)(Cc1ccncc1)C(=O)O; αMeY = C[C@](N)(Cc1ccc(O)cc1)C(=O)O; αMeF = C[C@](N)(Cc1ccccc1)C(=O)O; 4Pal = N[C@@H](Cc1ccncc1)C(=O)O; αMeL = CC(C)C[C@](C)(N)C(=O)O; αMeS = C[C@](N)(CO)C(=O)O; Orn = NCCC[C@H](N)C(=O)O; AEEA = NCCOCCOCC(=O)O; Aib = CC(C)(N)C(=O)O
quantityName: log10 of EC50 (log10 of the value in nM)

INSERT INTO results (substance, quantityname, endpointresult) VALUES
  ('H-Y[Aib]QGT[αMePhe(2-F)]TSDYSKLLDKIAQK([AEEA-γGlu-C20 diacid])[Orn]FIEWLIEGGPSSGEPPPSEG-NH2 [Example 310]', 'log10 of EC50', -1.03),
  ('Y[Aib]QGTFTSD[4Pal]SQ[αMeL]LDKK([dE-dE-γGlu-C18 diacid])AQ[αMe4Pal]AFIEYLIE[Aib]GPSSGAPPPSGSE-NH2 [Example 925]', 'log10 of EC50', -0.83),
  ('Y[Aib]QGTFTSD[4Pal]SQ[αMeL]LDKK([γGlu-γGlu-C18 diacid])AQ[αMe4Pal]AFIE[αMe4Pal]LIE[Aib]GPSSGAPPPSGTE-NH2 [Example 1118]', 'log10 of EC50', -0.89),
  ('H-Y[Aib]QGTFTSD[4Pal]SQ[αMeL]LD[Orn]K([AEEA-γGlu-C18 diacid])AQ[αMe4Pal]AFIE[αMeY]LIA[Aib]GPSSGEPPPSGSEE-NH2 [Example 1099]', 'log10 of EC50', -1.12),
  ('H-Y[Aib]QGTFTSD[4Pal]S[Orn][αMeL]LD[Orn]K([Glu-Glu-γGlu-C18 diacid])AQ[Aib]AFIE[αMeY]LLEGGPSSGAPPPSGSEE-NH2 [Example 1067]', 'log10 of EC50', -0.33),
  ('H-Y[Aib]QGTFTSD[4Pal]SQ[αMeL]LDKK([Glu-γGlu-C18 diacid])AQ[αMe4Pal]AFIEYLIE[Aib]GPSSGAPPPSGS-NH2 [Example 894]', 'log10 of EC50', -1.12),
  ('H-Y[Aib]QGTFTSDYSI[αMeL]LDKIAAK([AEEA-AEEA-γGlu-C20 diacid])QFVEWLLA[Aib]GPSSGEPPPSEG-NH2 [Example 324]', 'log10 of EC50', -0.79),
  ('H-Y[Aib]QGTFTSD[4Pal]SQ[αMeL]LDKK([AEEA-γGlu-C18 diacid])AQ[αMe4Pal]AFIEYLIE[Aib]GESSGAPPPSGE-NH2 [Example 227]', 'log10 of EC50', -0.77),
  ('Y[Aib]QGTFTSDFS[Orn][αMeL]LDKK([AEEA-γGlu-C18 diacid])AQ[Aib]AFIEWLLEGGHSSGEPPPSGE-NH2 [Example 124]', 'log10 of EC50', -0.46),
  ('H-Y[Aib]QGTFTSD[4Pal]SQ[αMeL]LD[Orn]K([AEEA-γGlu-C18 diacid])AQ[αMe4Pal]AFIEYLIQ[Aib]GPSSGEPPPSGSEE-NH2 [Example 1096]', 'log10 of EC50', -1.10),
  ('H-Y[Aib]QGTFTSDFS[Orn][αMeL]LDKK([AEEA-AEEA-γGlu-C18 diacid])AQ[Aib]AFIEYLLE[Aib]GPSSGEPPPEGS-NH2 [Example 195]', 'log10 of EC50', -0.84),
  ('H-Y[Aib]QGTFTSDFS[Orn][αMeL]LDKK([AEEA-AEEA-γGlu-C18 diacid])AQ[Aib]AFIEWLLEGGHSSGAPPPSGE-NH2 [Example 169]', 'log10 of EC50', -0.68),
  ('H-Y[Aib]QGTFTSDFS[Orn][αMeL]LDKK([AEEA-γGlu-C18 diacid])AQ[Aib]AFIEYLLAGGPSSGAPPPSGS-NH2 [Example 95]', 'log10 of EC50', -0.94),
  ('H-Y[Aib]QGTFTSDFS[Orn][αMeL]LDKK([AEEA-γGlu-C18 diacid])AQ[Aib]AFIEYLLEGGPSSGAPPPGG[4Pal]-NH2 [Example 261]', 'log10 of EC50', -0.54),
  ('H-Y[Aib]QGTFTSDFS[Orn][αMeL]LDKK([γGlu-AEEA-γGlu-C18 diacid])AQ[Aib]AFIEYLLE[Aib]GPSSGAPPPSG[4Pal]-NH2 [Example 277]', 'log10 of EC50', -1.17),
  ('H-Y[Aib]QGT[αMePhe(2-F)]TSD[4Pal][αMeS]I[αMeL]LD[Orn]K([AEEA-γGlu-C18 diacid])AQ[αMe4Pal]EFI[dE][αMeY]LVEGGPSSGAPPPESE-NH2 [Example 1156]', 'log10 of EC50', -1.90),
  ('Y[Aib]QGT[αMeF]TSD[4Pal][αMeS]I[αMeL]LD[Orn]K([AEEA-γGlu-C18 diacid])AQ[αMe4Pal]EFI[dE][αMeY]LIEGGPSSGEPPPSGGGE-NH2 [Example 1169]', 'log10 of EC50', -1.96),
  ('H-Y[Aib]QGT[αMePhe(2-F)]TSD[4Pal][αMeS]I[αMeL]LD[Orn]K([AEEA-γGlu-γGlu-C18 diacid])AQ[αMe4Pal]EFI[dE][αMeY]LIEGGPSSGAPPPSGGGE-NH2 [Example 1180]', 'log10 of EC50', -2.22),
  ('H-Y[Aib]QGTFTSD[4Pal]SQ[αMeL]LDKK([AEEA-γGlu-C18 diacid])AQ[αMe4Pal]AFIEYLIE[Aib]GPSSGAPPPEGS-NH2 [Example 851]', 'log10 of EC50', -0.67),
  ('Y[Aib]QGTFTSDFSK[αMeL]LDKK([AEEA-γGlu-C20 diacid])AQ[Aib]AFIQYLLAGGPSSGEPPPSEG-NH2 [Example 27]', 'log10 of EC50', -0.39),
  ('H-Y[Aib]QGTFTSDYSI[αMeL]LDKQAAK([AEEA-AEEA-γGlu-C20 diacid])QFVEWLIA[Aib]GPSSGEPPPGEG-NH2 [Example 333]', 'log10 of EC50', -0.58),
  ('H-Y[Aib]QGTFTSD[4Pal]SQ[αMeL]LDKK([AEEA-γGlu-C18 diacid])AQ[Aib]AFIE[αMeY]LIEGGPSSGAPPPEGS-NH2 [Example 853]', 'log10 of EC50', -0.65);
